Assay: MTT cell viability, nasopharyngeal cancer cells
Format: cell-based
Details: human, Hone-1 nasopharyngeal cancer cells; Hone-1, 0.05 mM, 48 hrs, MTT
endpointName: viability at 48 h, 0.05 mM

**Q:** Entry under review: O=C(/C=C/c1ccc(O)c2c1[C@H](C(=O)O[C@H](Cc1ccc(O)c(O)c1)C(=O)[O-])[C@@H](c1ccc(O)c(O)c1)O2)O[C@H](Cc1ccc(O)c(O)c1)C(=O)[O-].[Mg+2] [Sal-B, magnesium lithospermate B] . Reported viability at 48 h, 0.05 mM?
**A:** > 80%

====

Assay: MTT cell viability, nasopharyngeal cancer cells
Type: cell-based
Conditions: human, Hone-1 nasopharyngeal cancer cells; Hone-1, 0.1 mM and 0.2 mM, 48 hrs, MTT
endpointName: viability at 48 h

**Q:** Look up viability at 48 h: O=C(/C=C/c1ccc(O)c2c1[C@H](C(=O)O[C@H](Cc1ccc(O)c(O)c1)C(=O)[O-])[C@@H](c1ccc(O)c(O)c1)O2)O[C@H](Cc1ccc(O)c(O)c1)C(=O)[O-].[Mg+2] [Sal-B, magnesium lithospermate B]
**A:** ~60%

====

Assay: MTT cell viability, prostate cancer cells
Type: cell-based
Settings: human, PC-3 prostate cancer cells; PC-3, 0.2 mM, 48 hrs, MTT
endpointName: viability at 48 h, 0.2 mM

**Q:** # lookup: viability at 48 h, 0.2 mM of O=C(/C=C/c1ccc(O)c2c1[C@H](C(=O)O[C@H](Cc1ccc(O)c(O)c1)C(=O)[O-])[C@@H](c1ccc(O)c(O)c1)O2)O[C@H](Cc1ccc(O)c(O)c1)C(=O)[O-].[Mg+2] [Sal-B, magnesium lithospermate B]
**A:** > 80%
